- Subject Of Test: 5HT uptake (Homo sapiens, UniProt P31645)
- Sequence (P31645 whole entry): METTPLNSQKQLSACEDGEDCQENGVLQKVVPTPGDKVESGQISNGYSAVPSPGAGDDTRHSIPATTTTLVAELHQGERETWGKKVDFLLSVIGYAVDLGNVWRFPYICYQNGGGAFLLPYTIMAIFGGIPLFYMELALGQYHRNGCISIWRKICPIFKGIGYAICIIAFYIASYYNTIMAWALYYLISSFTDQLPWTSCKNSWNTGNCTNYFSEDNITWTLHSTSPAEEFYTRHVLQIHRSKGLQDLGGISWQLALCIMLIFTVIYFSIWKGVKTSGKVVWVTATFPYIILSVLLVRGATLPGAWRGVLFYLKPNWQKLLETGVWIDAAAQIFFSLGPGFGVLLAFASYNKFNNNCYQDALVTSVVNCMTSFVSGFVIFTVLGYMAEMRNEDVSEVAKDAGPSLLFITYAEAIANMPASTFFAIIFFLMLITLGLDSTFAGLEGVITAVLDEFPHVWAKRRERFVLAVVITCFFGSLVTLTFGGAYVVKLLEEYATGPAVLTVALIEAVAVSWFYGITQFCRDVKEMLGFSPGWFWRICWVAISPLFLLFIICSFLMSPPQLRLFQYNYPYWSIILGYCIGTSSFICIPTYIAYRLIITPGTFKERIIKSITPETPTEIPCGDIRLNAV
- Procedure Details: biochemical
- Condition Parameters: read-out: 5HT uptake inhibition Ki values
Structures can show the parent of a compound that is named as a salt.
Form field: Ki (one value per entry).
Measured Quantity: Ki (µM)

# Compound, Obs Value
rows = [
    ("CNC[C@@H]1CCCC[C@H]1c1cccc(O)c1 [hydrochloride]", 9.41),
    ("CN(C)C[C@@H]1CCCC[C@H]1c1cccc(O)c1.Cl [hydrochloride]", 0.05),
]

====

- Subject Of Test: μ-Opioid receptor (Homo sapiens, UniProt P35372)
- Sequence (P35372 whole entry): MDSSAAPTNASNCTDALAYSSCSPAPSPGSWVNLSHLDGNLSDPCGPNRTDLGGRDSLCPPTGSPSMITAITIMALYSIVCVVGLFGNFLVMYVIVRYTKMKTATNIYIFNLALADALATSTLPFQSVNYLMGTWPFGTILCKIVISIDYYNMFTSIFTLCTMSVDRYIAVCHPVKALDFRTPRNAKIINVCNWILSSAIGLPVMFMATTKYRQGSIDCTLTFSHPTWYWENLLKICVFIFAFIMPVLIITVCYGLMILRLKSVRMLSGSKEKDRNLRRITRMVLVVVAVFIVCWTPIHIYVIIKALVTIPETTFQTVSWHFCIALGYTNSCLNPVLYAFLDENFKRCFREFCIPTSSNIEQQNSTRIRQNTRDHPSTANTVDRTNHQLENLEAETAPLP
Counter-ions that a name gives are not always drawn.

# Compound, Ki
measured = [
    ("CNC[C@@H]1CCCC[C@H]1c1cccc(O)c1 [hydrochloride]", "910 nM"),
]

====

- Subject Of Test: NA uptake (Homo sapiens)
- Sequence (P23975 whole entry): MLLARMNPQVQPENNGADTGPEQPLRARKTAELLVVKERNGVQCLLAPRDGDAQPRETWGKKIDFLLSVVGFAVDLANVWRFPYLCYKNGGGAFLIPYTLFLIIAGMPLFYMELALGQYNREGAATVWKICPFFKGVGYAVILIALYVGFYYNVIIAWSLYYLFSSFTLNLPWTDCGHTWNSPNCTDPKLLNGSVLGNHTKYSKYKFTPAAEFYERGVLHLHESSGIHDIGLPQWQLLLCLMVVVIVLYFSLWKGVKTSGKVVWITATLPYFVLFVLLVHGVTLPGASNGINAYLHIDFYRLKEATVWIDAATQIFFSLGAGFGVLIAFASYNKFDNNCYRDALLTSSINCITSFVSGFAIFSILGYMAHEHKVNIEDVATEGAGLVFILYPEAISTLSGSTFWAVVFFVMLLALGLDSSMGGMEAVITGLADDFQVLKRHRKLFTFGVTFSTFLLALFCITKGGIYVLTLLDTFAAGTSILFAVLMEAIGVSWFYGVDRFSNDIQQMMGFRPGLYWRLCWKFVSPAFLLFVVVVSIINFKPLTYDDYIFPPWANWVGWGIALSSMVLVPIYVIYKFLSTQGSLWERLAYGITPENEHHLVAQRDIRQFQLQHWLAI
- Procedure Details: biochemical
- Condition Parameters: read-out: NA uptake inhibition Ki values
Counter-ions that a name gives are not always drawn.

# Compound, Ki [nM]
rows = [
    ("CN(C)C[C@@H]1CCCC[C@H]1c1cccc(O)c1.Cl [hydrochloride]", 160),
    ("CNC[C@@H]1CCCC[C@H]1c1cccc(O)c1 [hydrochloride]", 560),
]

====

- Subject Of Test: μ-Opioid receptor (Rattus norvegicus)
- Sequence (P33535 whole entry): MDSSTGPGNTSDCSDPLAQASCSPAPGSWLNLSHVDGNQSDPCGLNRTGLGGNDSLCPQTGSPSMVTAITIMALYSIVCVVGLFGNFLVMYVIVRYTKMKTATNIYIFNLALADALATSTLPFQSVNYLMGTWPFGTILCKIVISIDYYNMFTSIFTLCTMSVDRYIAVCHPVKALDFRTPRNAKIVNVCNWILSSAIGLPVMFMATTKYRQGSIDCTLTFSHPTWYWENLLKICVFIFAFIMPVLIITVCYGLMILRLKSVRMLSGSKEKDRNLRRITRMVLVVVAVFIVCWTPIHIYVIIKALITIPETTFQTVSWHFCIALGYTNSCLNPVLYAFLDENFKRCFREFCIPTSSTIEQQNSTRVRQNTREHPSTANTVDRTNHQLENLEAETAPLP
- Procedure Details: μ-Opioid receptor binding (rat)
Measured Quantity: Ki (nM)

# Molecule, Display Unit, Obs Value
data = [
    ("CN(C)C[C@@H]1CCCC[C@H]1c1cccc(O)c1.Cl [hydrochloride]", "nM", 38),
]
